B1: Twister Ribozyme (parent)
chain: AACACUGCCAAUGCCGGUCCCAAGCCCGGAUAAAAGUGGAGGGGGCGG

Variants of: B1
Assay notes: self-cleavage, relative activity (ratio to wild type); higher = more cleavage; co-transcriptional
Metric: self-cleavage

See these solved cases before continuing.
>>> df
   variant_notation         metric  result
0         C27G U37G  self-cleavage  0.0978
1          C8U A22G  self-cleavage     0.1
2          C3A A30G  self-cleavage   0.202
3          G7U G24A  self-cleavage  0.0738
4          A4G A35C  self-cleavage   0.865

C26A A35C has a reported self-cleavage of 0.572

Sample C15G A22U ; self-cleavage observed: 0.0572

Lab note: C20G A22G gave self-cleavage of 0.0602

For A10G C25U the variant record lists self-cleavage as 0.874

Recorded self-cleavage (variant C8A G42C ): 0.285

So for C21U G47A , the logged self-cleavage turned out to be 0.123

What the record says about C19G G48C : self-cleavage is 0.23

Per the record, G13U G24A has self-cleavage of 0.0906

Per the record, A2U U12G has self-cleavage of 0.557
